- TARGET_SYSTEM: Mismatch repair endonuclease PMS2 (UniProt P54278)
- Sequence (P54278 whole entry): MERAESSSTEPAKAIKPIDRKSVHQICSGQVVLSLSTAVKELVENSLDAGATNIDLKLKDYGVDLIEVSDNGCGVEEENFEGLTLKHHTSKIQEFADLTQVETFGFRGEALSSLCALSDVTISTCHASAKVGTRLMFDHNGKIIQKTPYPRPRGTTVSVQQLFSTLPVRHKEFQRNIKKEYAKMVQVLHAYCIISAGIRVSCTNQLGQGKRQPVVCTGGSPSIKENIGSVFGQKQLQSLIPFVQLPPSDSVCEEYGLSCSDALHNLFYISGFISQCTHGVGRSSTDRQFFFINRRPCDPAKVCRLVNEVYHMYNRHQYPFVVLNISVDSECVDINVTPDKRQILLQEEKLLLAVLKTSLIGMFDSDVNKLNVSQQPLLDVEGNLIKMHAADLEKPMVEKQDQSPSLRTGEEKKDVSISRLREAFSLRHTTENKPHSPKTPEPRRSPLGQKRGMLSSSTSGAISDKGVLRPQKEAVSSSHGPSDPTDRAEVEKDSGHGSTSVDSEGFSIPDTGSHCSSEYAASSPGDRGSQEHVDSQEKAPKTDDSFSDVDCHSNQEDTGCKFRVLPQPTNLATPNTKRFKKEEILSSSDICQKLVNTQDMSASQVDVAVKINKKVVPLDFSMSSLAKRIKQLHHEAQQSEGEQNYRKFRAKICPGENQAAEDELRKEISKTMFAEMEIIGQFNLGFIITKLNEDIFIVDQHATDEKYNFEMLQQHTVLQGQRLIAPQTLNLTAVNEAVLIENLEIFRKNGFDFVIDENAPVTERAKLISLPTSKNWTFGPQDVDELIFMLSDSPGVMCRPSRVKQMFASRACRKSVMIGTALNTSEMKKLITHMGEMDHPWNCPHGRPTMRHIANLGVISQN
- ASSAY_REMARKS: Fluorescence Polarisation Assay for PMS2
MEASURE: IC50

{"MOLECULE": "Cc1c(O)cc(O)c(C(=O)N2Cc3cccc(Br)c3C2)c1OCc1ccccc1 [US12552758, Example 38]", "OBS_VALUE": "< 1000 nM"}
{"MOLECULE": "Cc1c(O)cc(O)c(C(=O)N2Cc3cccnc3C2)c1OCc1ccccc1 [US12552758, Example 30]", "OBS_VALUE": "< 1000 nM"}

src = BindingDB's records for patent US12552758
